Each recorded value in this set is attributed to PubChem BioAssay AID1745844.

# Test system: rodent lifetime carcinogenesis bioassay, tumor incidence TD50
# protocol-description: carcinogenic potency in animals, long-term in vivo studies, CPDB compilation (AID 1745844)
# applied-conditions: mouse; strain CBA; males; by gavage; site: liver; lesion: several types; types named in the paper; dosed 26 weeks; study length 104 weeks
observation-type: TD50 (mg/kg/day)
Give just the number in mg/kg/day; leave the unit off.

What does the record list as TD50 for Nc1ccc(-c2ccc(F)cc2)cc1 ?
1.19

###

# System: rodent lifetime carcinogenesis bioassay, tumor incidence TD50
# protocol-description: carcinogenic potency in animals, long-term in vivo studies, CPDB compilation (AID 1745844)
# applied-conditions: rat; strain Fischer 344; males; by gavage; site: forestomach + stomach; lesion: squamous-cell papilloma + squamous-cell carcinoma; dosed 104 weeks; study length 106 weeks
observation-type: TD50

GET /values?readout=TD50&system=rodent lifetime carcinogenesis bioassay, tumor incidence TD50&item= ClC=CCCl
64.1 mg/kg/day

###

# System: rodent lifetime carcinogenesis bioassay, tumor incidence TD50
# protocol-description: carcinogenic potency in animals, long-term in vivo studies, CPDB compilation (AID 1745844)
# applied-conditions: rat; strain Fischer 344; females; in feed; site: urinary bladder; lesion: squamous-cell carcinoma + squamous-cell papilloma; dosed 103 weeks; study length 104 weeks
observation-type: TD50

What does the record list as TD50 for Nc1ccc(N)c2c1C(=O)c1c(N)ccc(N)c1C2=O ?
664 mg/kg/day

###

# Tested on: rodent lifetime carcinogenesis bioassay, tumor incidence TD50
# protocol-description: carcinogenic potency in animals, long-term in vivo studies, CPDB compilation (AID 1745844)
# applied-conditions: mouse; strain B6C3F1; females; by gavage; site: lung; lesion: alveolar/bronchiolar adenoma; dosed 88 weeks; study length 104 weeks
observation-type: TD50
Please answer using the number first and the unit second.

What does the record list as TD50 for ClCC(Cl)CCl ?
14.6 mg/kg/day

###

# System: rodent lifetime carcinogenesis bioassay, tumor incidence TD50
# protocol-description: carcinogenic potency in animals, long-term in vivo studies, CPDB compilation (AID 1745844)
# applied-conditions: mouse; strain B6C3F1; females; in feed; site: ovary; lesion: reticulum-cell sarcoma, type A; dosed 107 weeks; study length 107 weeks
observation-type: TD50

What does the record list as TD50 for CN(C)c1ccc(C(=C2C=CC(=[N+](C)C)C=C2)c2ccc(N(C)C)cc2)cc1 ?
912 mg/kg/day

###

# Tested on: rodent lifetime carcinogenesis bioassay, tumor incidence TD50
# protocol-description: carcinogenic potency in animals, long-term in vivo studies, CPDB compilation (AID 1745844)
# applied-conditions: mouse; strain B6C3F1; females; inhaled; site: mammary gland; lesion: acinar-cell carcinoma; dosed 61 weeks; study length 61 weeks
observation-type: TD50

GET /values?readout=TD50&system=rodent lifetime carcinogenesis bioassay, tumor incidence TD50&item= C=CC=C
1030 mg/kg/day

###

# Test system: rodent lifetime carcinogenesis bioassay, tumor incidence TD50
# protocol-description: carcinogenic potency in animals, long-term in vivo studies, CPDB compilation (AID 1745844)
# applied-conditions: rat; strain Fischer 344; males; by gavage; site: forestomach; lesion: squamous-cell papilloma; dosed 104 weeks; study length 107 weeks
observation-type: TD50

What does the record list as TD50 for c1ccc(C2CO2)cc1 (stereo unspecified) ?
146 mg/kg/day

###

# System: rodent lifetime carcinogenesis bioassay, tumor incidence TD50
# protocol-description: carcinogenic potency in animals, long-term in vivo studies, CPDB compilation (AID 1745844)
# applied-conditions: rat; strain Fischer 344; females; in drinking water; site: esophagus; lesion: several types; types named in the paper; dosed 36 weeks; study length 104 weeks
observation-type: TD50

What does the record list as TD50 for O=NN1CCCC1c1ccc[n+]([O-])c1 (stereo unspecified) ?
5.65 mg/kg/day

###

# Tested on: rodent lifetime carcinogenesis bioassay, tumor incidence TD50
# protocol-description: carcinogenic potency in animals, long-term in vivo studies, CPDB compilation (AID 1745844)
# applied-conditions: monkey; strain Cynomolgus [Macaca fascicularis]; both sexes; in feed; site: liver; lesion: hepatocellular carcinoma; dosed 1238 weeks; study length 1238 weeks
observation-type: TD50

What does the record list as TD50 for O=S(=O)(O)NC1CCCCC1 ?
1250 mg/kg/day

###

# System: rodent lifetime carcinogenesis bioassay, tumor incidence TD50
# protocol-description: carcinogenic potency in animals, long-term in vivo studies, CPDB compilation (AID 1745844)
# applied-conditions: rat; strain Fischer 344; males; inhaled; site: thyroid gland; lesion: c-cell adenoma; dosed 105 weeks; study length 105 weeks
observation-type: TD50 (mg/kg/day)
Give just the number in mg/kg/day; leave the unit off.

GET /values?readout=TD50&system=rodent lifetime carcinogenesis bioassay, tumor incidence TD50&item= O=[O+][O-]
0.019

###

# Test system: rodent lifetime carcinogenesis bioassay, tumor incidence TD50
# protocol-description: carcinogenic potency in animals, long-term in vivo studies, CPDB compilation (AID 1745844)
# applied-conditions: rat; strain Fischer 344; males; by gavage; site: mammary gland; lesion: fibroadenoma; dosed 104 weeks; study length 105 weeks
observation-type: TD50 (mg/kg/day)
Give just the number in mg/kg/day; leave the unit off.

What does the record list as TD50 for CCCC(Cl)CCCC(Cl)CCC(Cl)CCC(Cl)CCC(Cl)CCCC(Cl)CCC (stereo unspecified) ?
566

###

# Test system: rodent lifetime carcinogenesis bioassay, tumor incidence TD50
# protocol-description: carcinogenic potency in animals, long-term in vivo studies, CPDB compilation (AID 1745844)
# applied-conditions: mouse; strain Swiss albino; males; in drinking water; site: lung; lesion: several types; types named in the paper; dosed 115 weeks; study length 115 weeks
observation-type: TD50

What does the record list as TD50 for CC(=O)NNc1ccc(CO)cc1 ?
208 mg/kg/day

###

# Tested on: rodent lifetime carcinogenesis bioassay, tumor incidence TD50
# protocol-description: carcinogenic potency in animals, long-term in vivo studies, CPDB compilation (AID 1745844)
# applied-conditions: mouse; strain B6C3F1; females; in feed; site: liver; lesion: hepatocellular carcinoma; dosed 80 weeks; study length 105 weeks
observation-type: TD50

What does the record list as TD50 for Nc1ccc(N=Nc2ccccc2)c(N)n1 ?
132 mg/kg/day

###

# System: rodent lifetime carcinogenesis bioassay, tumor incidence TD50
# protocol-description: carcinogenic potency in animals, long-term in vivo studies, CPDB compilation (AID 1745844)
# applied-conditions: rat; strain Fischer 344; females; inhaled; site: liver; lesion: hepatocellular carcinoma + neoplastic nodule; dosed 102 weeks; study length 104 weeks
observation-type: TD50 (mg/kg/day)
Give just the number in mg/kg/day; leave the unit off.

What does the record list as TD50 for ClCCl ?
4270

###

# Test system: rodent lifetime carcinogenesis bioassay, tumor incidence TD50
# protocol-description: carcinogenic potency in animals, long-term in vivo studies, CPDB compilation (AID 1745844)
# applied-conditions: mouse; strain C57BL/He; both sexes; in feed; site: any site (literature study); lesion: several types; types named in the paper; dosed 104 weeks; study length 104 weeks
Active and inactive are the calls of the source. How the calls were made is not given here.
observation-type: TD50

GET /values?readout=TD50&system=rodent lifetime carcinogenesis bioassay, tumor incidence TD50&item= Cc1cc(C)c(S(=O)(=O)O)cc1N=Nc1cc(S(=O)(=O)O)c2ccccc2c1O
20300 mg/kg/day (inactive)

###

# Tested on: rodent lifetime carcinogenesis bioassay, tumor incidence TD50
# protocol-description: carcinogenic potency in animals, long-term in vivo studies, CPDB compilation (AID 1745844)
# applied-conditions: mouse; strain BALB/cStCrlfC3Hf/Nctr; females; in feed; site: mammary gland; lesion: adenoacanthoma; dosed 132 weeks; study length 133 weeks
observation-type: TD50

GET /values?readout=TD50&system=rodent lifetime carcinogenesis bioassay, tumor incidence TD50&item= CC/C(=C(/CC)c1ccc(O)cc1)c1ccc(O)cc1
1.88 mg/kg/day

###

# Test system: rodent lifetime carcinogenesis bioassay, tumor incidence TD50
# protocol-description: carcinogenic potency in animals, long-term in vivo studies, CPDB compilation (AID 1745844)
# applied-conditions: rat; strain Fischer 344; females; in drinking water; site: spinal cord; lesion: astrocytoma; dosed 107 weeks; study length 107 weeks
observation-type: TD50 (mg/kg/day)
Give just the number in mg/kg/day; leave the unit off.

What does the record list as TD50 for C=CC(N)=O ?
210

###

# Tested on: rodent lifetime carcinogenesis bioassay, tumor incidence TD50
# protocol-description: carcinogenic potency in animals, long-term in vivo studies, CPDB compilation (AID 1745844)
# applied-conditions: mouse; strain B6C3F1; males; by gavage; site: all sites + liver; lesion: hemangiosarcoma + hepatocellular adenoma + hepatocellular carcinoma; dosed 103 weeks; study length 105 weeks
observation-type: TD50 (mg/kg/day)
Give just the number in mg/kg/day; leave the unit off.

GET /values?readout=TD50&system=rodent lifetime carcinogenesis bioassay, tumor incidence TD50&item= Nc1ccc(Cl)cc1
56

###

# Tested on: rodent lifetime carcinogenesis bioassay, tumor incidence TD50
# protocol-description: carcinogenic potency in animals, long-term in vivo studies, CPDB compilation (AID 1745844)
# applied-conditions: rat; strain Fischer 344; males; by gavage; site: thyroid gland; lesion: follicular-cell adenoma; dosed 103 weeks; study length 104 weeks
observation-type: TD50 (mg/kg/day)
Give just the number in mg/kg/day; leave the unit off.

compound	measurement
O=CCC=O	206

Let us examine a further case.
What does the record list as TD50 for [Cl][Hg][Cl] ?
5.98
